tested on: LXRα and/or LXRβ; test: Co-transfection assay (LXRE luciferase reporter, CV-1 cells); format: cell-based, human; conditions: tested as described in Example 33; IC50 or EC50 for LXRα and/or LXRβ, isoform not specified; read-out: activity (IC50 or EC50 for LXR)
measuredAttribute: IC50 or EC50 (potency, activation or inhibition)

molecularstring=Cc1cc(-c2cccc(S(C)(=O)=O)c2)ccc1-n1cc(C(C)(C)O)nc1-c1ccccc1C(C)C recordedmeasurement="< 1000 nM"
molecularstring=CC(C)(O)c1cn(-c2ccc(-c3cccc(S(C)(=O)=O)c3)cc2Cl)c(-c2cccc(Cl)c2Cl)n1 recordedmeasurement="< 1000 nM"
molecularstring=CCOC(=O)c1ccc(-c2ccc(-n3cc(C(C)(C)O)nc3-c3c(F)cccc3Cl)c(Cl)c2)cc1S(C)(=O)=O recordedmeasurement="1000 to 10000 nM"

[in] IC50 or EC50 (potency, activation or inhibition) lookup needed for CCS(=O)(=O)c1cccc(-c2ccc(-n3cc(C(C)(C)O)nc3-c3c(F)cccc3F)cc2)c1 , thanks.
[out] 1000 to 10000 nM

[in] IC50 or EC50 (potency, activation or inhibition) lookup needed for CC(C)(O)c1nc(-c2ccc(-c3cccc(S(C)(=O)=O)c3)cc2Cl)n(-c2c(Cl)cccc2Cl)c1Cl , thanks.
[out] < 1000 nM

[in] IC50 or EC50 (potency, activation or inhibition) lookup needed for CCS(=O)(=O)c1cccc(-c2ccc(-n3cc(C(C)(C)O)nc3Cc3c(F)cccc3Cl)cc2)c1 , thanks.
[out] < 1000 nM

[in] IC50 or EC50 (potency, activation or inhibition) lookup needed for Cc1cc(-c2cccc(S(C)(=O)=O)c2)ccc1-n1cc(C(C)(C)O)nc1-c1cccc2cnccc12 , thanks.
[out] 1000 to 10000 nM

[in] IC50 or EC50 (potency, activation or inhibition) lookup needed for CCS(=O)(=O)c1cccc(-c2ccc(-n3cc(C(C)(C)O)nc3-c3c(F)cccc3F)c(F)c2)c1 , thanks.
[out] 1000 to 10000 nM

---

system: LXRα and/or LXRβ; experiment: Co-transfection assay (LXRE luciferase reporter, CV-1 cells); type: cell-based, human; settings: tested as described in Example 33; IC50 or EC50 for LXRα and/or LXRβ, isoform not specified; read-out: activity (IC50 or EC50 for LXR)
measuredAttribute: IC50 or EC50 (potency, activation or inhibition)

Example entries begin here.
molecularstring=Cc1cccc(Cl)c1-c1nc(C(C)(C)O)cn1-c1ccc(-c2ccc(CO)c(S(C)(=O)=O)c2)cc1F recordedmeasurement="< 1000 nM"
molecularstring=CS(=O)(=O)c1cccc(-c2ccc(-n3cc(C(=O)NCCO)nc3-c3c(Cl)cccc3Cl)cc2)c1 recordedmeasurement="< 1000 nM"
molecularstring=COc1ccc(-c2ccc(-n3cc(C(C)(C)O)nc3-c3c(F)cccc3Cl)c(Cl)c2)cc1S(C)(=O)=O recordedmeasurement="1000 to 10000 nM"
molecularstring=CC(C)(O)c1cn(-c2ccc(-c3cccc(S(C)(=O)=O)c3)cc2)c(-c2cccc(C(F)(F)F)c2)n1 recordedmeasurement="< 1000 nM"
molecularstring=CC(C)(O)c1cn(-c2ccc(-c3cc(S(C)(=O)=O)ccc3Cl)cc2Cl)c(-c2c(Cl)cccc2Cl)n1 recordedmeasurement="< 1000 nM"

[in] IC50 or EC50 (potency, activation or inhibition) lookup needed for CC(C)(O)c1cn(-c2ccc(-c3cccc(S(C)(=O)=O)c3)cc2)c(-c2c(Cl)cccc2-c2cccc(S(C)(=O)=O)c2)n1 , thanks.
[out] 1000 to 10000 nM

[in] IC50 or EC50 (potency, activation or inhibition) lookup needed for CC(C)(O)c1cn(-c2ccc(-c3ccc(CO)c(S(C)(=O)=O)c3)cc2)c(CCc2ccccc2Cl)n1 , thanks.
[out] < 1000 nM

[in] IC50 or EC50 (potency, activation or inhibition) lookup needed for CC(C)(O)c1cn(-c2ccc(-c3cccc(S(C)(=O)=O)c3)cc2)c(-c2cccc(F)c2Cl)n1 , thanks.
[out] < 1000 nM

[in] IC50 or EC50 (potency, activation or inhibition) lookup needed for Cc1cc(-c2cccc(S(C)(=O)=O)c2)ccc1-n1cc(C(C)(C)O)nc1-c1cccs1 , thanks.
[out] 1000 to 10000 nM

[in] IC50 or EC50 (potency, activation or inhibition) lookup needed for Cc1cc(-c2cccc(S(C)(=O)=O)c2)ccc1-n1cc(C(C)(C)O)nc1-c1ccc(C)n1C , thanks.
[out] < 1000 nM

[in] IC50 or EC50 (potency, activation or inhibition) lookup needed for CC(C)(O)c1cn(-c2ccc(-c3cccc(S(C)(=O)=O)c3)cc2F)c(-c2c(F)cccc2F)n1 , thanks.
[out] 1000 to 10000 nM

[in] IC50 or EC50 (potency, activation or inhibition) lookup needed for FC(F)(F)c1cn(-c2ccc(Br)cn2)c(-c2ccccc2C(F)(F)F)n1 , thanks.
[out] 1000 to 10000 nM

[in] IC50 or EC50 (potency, activation or inhibition) lookup needed for CC(C)(O)c1cn(-c2ccc(-c3ccc(C(C)(C)O)c(S(C)(=O)=O)c3)cc2Cl)c(-c2ccccc2C(F)(F)F)n1 , thanks.
[out] < 1000 nM

[in] IC50 or EC50 (potency, activation or inhibition) lookup needed for COc1ccc(-c2ccc(-n3cc(C(C)(C)O)nc3Cc3cccc(Cl)c3Cl)c(Cl)c2)cc1S(C)(=O)=O , thanks.
[out] < 1000 nM

[in] IC50 or EC50 (potency, activation or inhibition) lookup needed for CC(C)(O)c1cn(-c2ccc(-c3cccc(N)c3)cc2)c(-c2ccccc2Cl)n1 , thanks.
[out] 1000 to 10000 nM

---

system: LXRα and/or LXRβ; test: Co-transfection assay (LXRE luciferase reporter, CV-1 cells); format: cell-based, human; details: tested as described in Example 33; IC50 or EC50 for LXRα and/or LXRβ, isoform not specified; read-out: activity (IC50 or EC50 for LXR)
IC50 or EC50 (potency, activation or inhibition) listing for selected molecules.

Example entries begin here.
molecularstring=CS(=O)(=O)c1cccc(-c2ccc(-c3[nH]c(C(F)(F)F)nc3-c3ccccc3Cl)cc2)c1 subjectoftest="LXRα and/or LXRβ" recordedmeasurement="< 1000 nM"
molecularstring=CCS(=O)(=O)c1cccc(-c2ccc(-n3cc(C(C)(C)O)nc3-c3cccc(Cl)c3C)c(C)c2)c1 subjectoftest="LXRα and/or LXRβ" recordedmeasurement="< 1000 nM"
molecularstring=CCS(=O)(=O)c1cccc(-c2ccc(-n3cc(C(C)(C)O)nc3-c3cnccc3C(F)(F)F)cc2)c1 subjectoftest="LXRα and/or LXRβ" recordedmeasurement="> 10000 nM"
molecularstring=CCc1ccccc1-c1nc(/C(C)=N/O)cn1-c1ccc(-c2cccc(S(C)(=O)=O)c2)cc1 subjectoftest="LXRα and/or LXRβ" recordedmeasurement="< 1000 nM"
molecularstring=CC(C)(O)c1cn(-c2ccc(-c3ccc(CO)c(S(C)(=O)=O)c3)cc2F)c(-c2ccccc2C(F)(F)F)n1 subjectoftest="LXRα and/or LXRβ" recordedmeasurement="< 1000 nM"
molecularstring=CCS(=O)(=O)c1cccc(-c2ccc(-n3cc(C(C)(C)O)nc3-c3ccccc3Cl)cc2)c1 subjectoftest="LXRα and/or LXRβ" recordedmeasurement="1000 to 10000 nM"

Moving on to the next molecule.
[in] IC50 or EC50 (potency, activation or inhibition) lookup needed for CC(C)(O)c1cn(-c2ccc(-c3ccc(C(=O)NCc4ccccc4)c(S(C)(=O)=O)c3)cc2Cl)c(-c2c(F)cccc2Cl)n1 , thanks.
[out] 1000 to 10000 nM

---

system: LXRα and/or LXRβ; test: Co-transfection assay (LXRE luciferase reporter, CV-1 cells); assay type: cell-based, human; settings: tested as described in Example 33; IC50 or EC50 for LXRα and/or LXRβ, isoform not specified; read-out: activity (IC50 or EC50 for LXR)
IC50 or EC50 (potency, activation or inhibition) listing for selected molecules.

Example entries begin here.
molecularstring=Cc1cc(-c2cccc(S(C)(=O)=O)c2)ccc1-n1cc(C(C)(C)O)nc1-c1c(Cl)cccc1Cl recordedmeasurement="< 1000 nM"
molecularstring=Cc1cc(-c2ccc(CO)c(S(C)(=O)=O)c2)ccc1-n1cc(C(C)(C)O)nc1-c1ccccc1C(F)(F)F recordedmeasurement="< 1000 nM"
molecularstring=CCS(=O)(=O)c1cccc(-c2ccc(-n3cc(C(C)(C)O)nc3-c3ccccc3C(F)(F)F)c(F)c2)c1 recordedmeasurement="< 1000 nM"
molecularstring=CCS(=O)(=O)c1cccc(-c2ccc(-n3cc(C(C)(C)O)nc3-c3ccccc3C(F)(F)F)c(Cl)c2)c1 recordedmeasurement="< 1000 nM"
molecularstring=CC(C)(C)c1ccc(-c2ccc(-n3cc(C(C)(C)O)nc3-c3ccccc3Cl)cc2)cc1 recordedmeasurement="1000 to 10000 nM"

[in] What is its IC50 or EC50 (potency, activation or inhibition) for LXRα and/or LXRβ? Entry: CCS(=O)(=O)c1cccc(-c2ccc(-n3cc(C(C)(C)O)nc3-c3c(Cl)cccc3Cl)cc2)c1
[out] 1000 to 10000 nM

[in] What is its IC50 or EC50 (potency, activation or inhibition) for LXRα and/or LXRβ? Entry: COc1ccc(-c2ccc(-n3cc(C(C)(C)O)nc3-c3cccc(Cl)c3Cl)cc2)cc1S(C)(=O)=O
[out] < 1000 nM
